Measurement Target: VEGFR-2 (human, UniProt P35968 20-1356)
Sequence (P35968 20-1356): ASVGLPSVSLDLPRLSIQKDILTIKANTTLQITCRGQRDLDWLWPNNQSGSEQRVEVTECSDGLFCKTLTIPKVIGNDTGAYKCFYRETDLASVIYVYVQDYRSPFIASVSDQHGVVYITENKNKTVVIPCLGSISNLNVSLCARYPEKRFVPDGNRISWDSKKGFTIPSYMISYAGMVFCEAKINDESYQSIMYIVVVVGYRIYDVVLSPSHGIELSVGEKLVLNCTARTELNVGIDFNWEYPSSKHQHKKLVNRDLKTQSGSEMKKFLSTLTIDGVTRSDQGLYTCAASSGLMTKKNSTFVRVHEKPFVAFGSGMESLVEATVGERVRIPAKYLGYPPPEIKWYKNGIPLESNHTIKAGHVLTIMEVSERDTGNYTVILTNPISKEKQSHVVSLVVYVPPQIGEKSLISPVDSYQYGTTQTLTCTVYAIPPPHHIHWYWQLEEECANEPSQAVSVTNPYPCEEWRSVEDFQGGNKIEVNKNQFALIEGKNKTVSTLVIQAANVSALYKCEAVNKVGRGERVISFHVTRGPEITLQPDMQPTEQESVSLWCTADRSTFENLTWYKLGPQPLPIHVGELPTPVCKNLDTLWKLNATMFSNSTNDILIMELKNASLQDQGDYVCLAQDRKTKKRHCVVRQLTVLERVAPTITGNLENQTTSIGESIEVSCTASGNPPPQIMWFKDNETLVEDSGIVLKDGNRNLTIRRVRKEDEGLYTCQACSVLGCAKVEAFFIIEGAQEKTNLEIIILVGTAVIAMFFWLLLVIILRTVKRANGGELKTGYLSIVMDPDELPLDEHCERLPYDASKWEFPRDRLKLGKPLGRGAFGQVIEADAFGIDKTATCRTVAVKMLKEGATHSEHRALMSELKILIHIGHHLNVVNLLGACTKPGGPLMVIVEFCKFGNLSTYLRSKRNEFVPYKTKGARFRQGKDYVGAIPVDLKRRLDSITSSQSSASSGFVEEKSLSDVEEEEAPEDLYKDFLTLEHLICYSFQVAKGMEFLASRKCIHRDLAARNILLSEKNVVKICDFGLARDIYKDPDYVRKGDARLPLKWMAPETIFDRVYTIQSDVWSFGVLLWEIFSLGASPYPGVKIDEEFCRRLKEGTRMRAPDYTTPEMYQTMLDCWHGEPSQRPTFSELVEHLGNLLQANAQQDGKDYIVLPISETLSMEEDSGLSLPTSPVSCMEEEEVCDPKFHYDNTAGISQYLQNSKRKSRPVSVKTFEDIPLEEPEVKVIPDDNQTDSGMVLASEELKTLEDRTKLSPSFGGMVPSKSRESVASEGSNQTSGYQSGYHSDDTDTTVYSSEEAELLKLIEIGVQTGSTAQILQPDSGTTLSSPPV
Assay Summary: cell-based or functional assay
Bridges are numbered along the chain shown (N, C = ends). Where no end group is shown, it is not given here. [ ]: non-standard residue; d: D form. hTyr = N[C@@H](CCc1ccc(O)cc1)C(=O)O; Cha = N[C@@H](CC1CCCCC1)C(=O)O; Chg = N[C@H](C(=O)O)C1CCCCC1; Tle = CC(C)(C)[C@H](N)C(=O)O; Atb = not defined here
Endpoint Label: proliferation (HUVEC, CellTiter-Glo)

>  <Binder>
{CH2CO}-WWVDV[Cha]DDLYFVDCG (thioether N-14; also: dimer: C-terminus joined to second copy by PEG12c-K-PEG12c) [Peptide complex Dimer Structure No. 5]

>  <Endpoint Label>
proliferation (HUVEC, CellTiter-Glo)

>  <Value Measured>
< 50 % activity at 100 nM

$$$$
>  <Binder>
{CH2CO}-WW[Tle]DVKDDNYF[hTyr]DCG-NH2 (thioether N-14; not fully specified (residues 5, 6); also: dimer joined at Lys6 side chains by cPEG17c) [Peptide complex Dimer Structure No. 29]

>  <Endpoint Label>
proliferation (HUVEC, CellTiter-Glo)

>  <Value Measured>
≥ 50 % activity at 10 nM

$$$$
>  <Binder>
{CH2CO}-WW[Tle]DVKDDLYF[hTyr]SCG-NH2 (thioether N-14; also: homodimer: Lys6 joined to Lys6 of second copy by cPEG17c (Linker Structure No. 4)) [Peptide complex Dimer Structure No. 33]

>  <Endpoint Label>
proliferation (HUVEC, CellTiter-Glo)

>  <Value Measured>
≥ 50 % activity at 10 nM

$$$$
>  <Binder>
{CH2CO}-WW[Tle]DVKDDLYF[Chg]DCG-NH2 (thioether N-14; not fully specified (residue 6); also: homodimer: Lys6 joined to Lys6 of second copy by cPEG17c (Linker Structure No. 4)) [Peptide complex Dimer Structure No. 31]

>  <Endpoint Label>
proliferation (HUVEC, CellTiter-Glo)

>  <Value Measured>
≥ 50 % activity at 10 nM

$$$$
>  <Binder>
{CH2CO}-WW[Tle]D[alT]KDDLYF[hTyr]DCG-NH2 (thioether N-14; not fully specified (residue 6); also: homodimer: Lys6 joined to Lys6 of second copy by cPEG17c (Linker Structure No. 4)) [Peptide complex Dimer Structure No. 27]

>  <Endpoint Label>
proliferation (HUVEC, CellTiter-Glo)

>  <Value Measured>
≥ 50 % activity at 10 nM

$$$$
>  <Binder>
{CH2CO}-WW[Tle]DVKDD[Atb]YF[hTyr]DCG-NH2 (thioether N-14; reading uncertain; also: homodimer: Lys6 joined to Lys6 of second copy by OCOPEG13OCO (Linker Structure No. 5)) [Peptide complex Dimer Structure No. 49]

>  <Endpoint Label>
proliferation (HUVEC, CellTiter-Glo)

>  <Value Measured>
≥ 50 % activity at 5 nM

$$$$
>  <Binder>
{CH2CO}-WW[Tle]DVKDDLY[F4G]VDCG-NH2 (thioether N-14; also: homodimer: Lys6 joined to Lys6 of second copy by OCOPEG17OCO (Linker Structure No. 6)) [Peptide complex Dimer Structure No. 51]

>  <Endpoint Label>
proliferation (HUVEC, CellTiter-Glo)

>  <Value Measured>
≥ 50 % activity at 5 nM

$$$$
